All values here come from patent US5215991A.

- System: New Zealand White rabbits with normotensive IOP
- test.details: Intraocular pressure (IOP) after topical ocular administration in normotensive New Zealand White rabbits
- Type: in vivo, New Zealand White rabbit
- assay.conditions: difference between X (1%) + p-amino clonidine (0.1%) and p-amino clonidine alone; 3 hours
Could you please report measured ΔIOP at 3 Hr., (X + p) - p for the items listed next?
Answers are plain numbers, in mmHg.

molecule	target.system	reported.result
CN(C)c1nc(N)c(C(=O)N=C(N)N)nc1Cl [5-(N,N-dimethyl) amiloride]	New Zealand White rabbits with normotensive IOP	-1.9
NC(N)=NC(=O)c1nc(Cl)c(N2CCCCCC2)nc1N [5-(N,N-hexamethylene) amiloride]	New Zealand White rabbits with normotensive IOP	-10.1

Now consider the entry below.
// ΔIOP at 3 Hr., (X + p) - p value for CCN(c1nc(N)c(C(=O)N=C(N)N)nc1Cl)C(C)C [5-(N-ethyl-N-isopropyl) amiloride] : -7.4
